Settings: 338.15 K; 100 kPa; Liquid; Vibrating tube method
Quick list: mass density per entry.
Answer format: numeric, kg/m3 implied, no suffix.

Worked examples, 4 compounds total:
CC(=O)[O-].CCCCn1cc[n+](C)c1 [1-butyl-3-methylimidazolium acetate]    1028.5
CCCCn1cc[n+](C)c1.N#CN=C=[N-] [1-butyl-3-methylimidazolium dicyanamide]    1035.2
CCCCn1cc[n+](C)c1.F[B-](F)(F)F [1-butyl-3-methylimidazolium tetrafluoroborate]    1173.6
CCCCn1cc[n+](C)c1.COP(=O)([O-])OC [1-butyl-3-methyl-1H-imidazolium dimethylphosphate]    1131.4

Lookup result for CCCCn1cc[n+](C)c1.N#C[S-] [1-butyl-3-methylimidazolium thiocyanate] ; measured mass density: 1047
